- Tested on: K. pneumoniae GN_102 PmxR
- STUDY_CONDITIONS: GN 102 PmxR
Positions of bridges follow the written chain, without caps; N, C: chain ends. Non-standard residues stand in square brackets, D forms with d. Residues, ends and D or L forms follow the SMILES beside them. *: point of attachment. Decanoyl(3R-OH) = CCCCCCC[C@@H](O)CC(=O)*; Phe(4-NH2) = Nc1ccc(C[C@H](N)C(=O)O)cc1; dDab = NCC[C@@H](N)C(=O)O; Dab = NCC[C@H](N)C(=O)O
compounds and their reported MIC, K. pneumoniae Cl Koprana 10065 0661:1, PmxR
MEASURE_NAME: MIC, K. pneumoniae Cl Koprana 10065 0661:1, PmxR

compound="CCCCCCC[C@@H](O)CC(=O)N[C@H](CCN)C(=O)N[C@H]1CCNC(=O)[C@H](CC(C)C)NC(=O)[C@H](CCN)NC(=O)[C@H](CCN)NC(=O)[C@H](CC(C)C)NC(=O)[C@@H](Cc2ccccc2)NC(=O)[C@H](C)NC1=O [compound 4948] ({Decanoyl(3R-OH)}-[dDab][Dab]A[dF]L[Dab][Dab]L; lactam 2-C)" observed_result="8 µg/mL"
compound="CCCCCCC[C@@H](O)CC(=O)N[C@H](CCN)C(=O)N[C@H]1CCNC(=O)[C@H](CC(C)C)NC(=O)[C@H](CCN)NC(=O)[C@H](CCNC(=O)[C@@H](N)CCCNC(=N)N)NC(=O)[C@H](CC(C)C)NC(=O)[C@@H](Cc2ccccc2)NC(=O)[C@H](CCN)NC1=O [compound 6654] ({Decanoyl(3R-OH)}-[dDab][Dab][Dab][dF]L[Dab](Arg)[Dab]L; lactam 2-C)" observed_result="8 µg/mL"
compound="CCCCCCC[C@@H](O)CC(=O)N[C@H](CCN)C(=O)N[C@H]1CCNC(=O)[C@H](CC(C)C)NC(=O)[C@H](CCN)NC(=O)[C@H](CCCNC(=N)N)NC(=O)[C@H](CC(C)C)NC(=O)[C@@H](Cc2ccccc2)NC(=O)[C@H](CCN)NC1=O [compound 8733] ({Decanoyl(3R-OH)}-[dDab][Dab][Dab][dF]LR[Dab]L; lactam 2-C)" observed_result="2 µg/mL"
compound="CCCCCCC[C@@H](O)CC(=O)N[C@H](CCN)C(=O)N[C@H]1CCNC(=O)[C@H](CC(C)C)NC(=O)[C@H](CCN)NC(=O)[C@H](CCN)NC(=O)[C@H](CC(C)C)NC(=O)[C@@H](Cc2ccccc2)NC(=O)[C@H](Cc2ccc(N)cc2)NC1=O [compound 8635] ({Decanoyl(3R-OH)}-[dDab][Dab][Phe(4-NH2)][dF]L[Dab][Dab]L; lactam 2-C)" observed_result=">32 µg/mL"
compound="CCCCCCC[C@@H](O)CC(=O)N[C@H](CCN)C(=O)N[C@H]1CCNC(=O)[C@H](CC(C)C)NC(=O)[C@H](CCN)NC(=O)[C@H](CCCCN)NC(=O)[C@H](CC(C)C)NC(=O)[C@@H](Cc2ccccc2)NC(=O)[C@H](CCN)NC1=O [compound 992] ({Decanoyl(3R-OH)}-[dDab][Dab][Dab][dF]LK[Dab]L; lactam 2-C)" observed_result="4 µg/mL"
compound="CCCCCCC[C@@H](O)CC(=O)N[C@H](CCN)C(=O)N[C@H]1CCNC(=O)[C@H](CC(C)C)NC(=O)[C@H](CCN)NC(=O)[C@H](CCN)NC(=O)[C@H](CC(C)C)NC(=O)[C@@H](Cc2ccccc2)NC(=O)[C@H](CCNC(=O)[C@@H](N)CCCNC(=N)N)NC1=O [compound 6655] ({Decanoyl(3R-OH)}-[dDab][Dab][Dab](Arg)[dF]L[Dab][Dab]L; lactam 2-C)" observed_result="16 µg/mL"
